- ASSAYED_SYSTEM: cynomolgus monkey complement component C3 (cynomolgus monkey, UniProt P01024 24-1663 (human entry))
- Sequence (P01024 other isoform, or with tags, fused parts or gaps): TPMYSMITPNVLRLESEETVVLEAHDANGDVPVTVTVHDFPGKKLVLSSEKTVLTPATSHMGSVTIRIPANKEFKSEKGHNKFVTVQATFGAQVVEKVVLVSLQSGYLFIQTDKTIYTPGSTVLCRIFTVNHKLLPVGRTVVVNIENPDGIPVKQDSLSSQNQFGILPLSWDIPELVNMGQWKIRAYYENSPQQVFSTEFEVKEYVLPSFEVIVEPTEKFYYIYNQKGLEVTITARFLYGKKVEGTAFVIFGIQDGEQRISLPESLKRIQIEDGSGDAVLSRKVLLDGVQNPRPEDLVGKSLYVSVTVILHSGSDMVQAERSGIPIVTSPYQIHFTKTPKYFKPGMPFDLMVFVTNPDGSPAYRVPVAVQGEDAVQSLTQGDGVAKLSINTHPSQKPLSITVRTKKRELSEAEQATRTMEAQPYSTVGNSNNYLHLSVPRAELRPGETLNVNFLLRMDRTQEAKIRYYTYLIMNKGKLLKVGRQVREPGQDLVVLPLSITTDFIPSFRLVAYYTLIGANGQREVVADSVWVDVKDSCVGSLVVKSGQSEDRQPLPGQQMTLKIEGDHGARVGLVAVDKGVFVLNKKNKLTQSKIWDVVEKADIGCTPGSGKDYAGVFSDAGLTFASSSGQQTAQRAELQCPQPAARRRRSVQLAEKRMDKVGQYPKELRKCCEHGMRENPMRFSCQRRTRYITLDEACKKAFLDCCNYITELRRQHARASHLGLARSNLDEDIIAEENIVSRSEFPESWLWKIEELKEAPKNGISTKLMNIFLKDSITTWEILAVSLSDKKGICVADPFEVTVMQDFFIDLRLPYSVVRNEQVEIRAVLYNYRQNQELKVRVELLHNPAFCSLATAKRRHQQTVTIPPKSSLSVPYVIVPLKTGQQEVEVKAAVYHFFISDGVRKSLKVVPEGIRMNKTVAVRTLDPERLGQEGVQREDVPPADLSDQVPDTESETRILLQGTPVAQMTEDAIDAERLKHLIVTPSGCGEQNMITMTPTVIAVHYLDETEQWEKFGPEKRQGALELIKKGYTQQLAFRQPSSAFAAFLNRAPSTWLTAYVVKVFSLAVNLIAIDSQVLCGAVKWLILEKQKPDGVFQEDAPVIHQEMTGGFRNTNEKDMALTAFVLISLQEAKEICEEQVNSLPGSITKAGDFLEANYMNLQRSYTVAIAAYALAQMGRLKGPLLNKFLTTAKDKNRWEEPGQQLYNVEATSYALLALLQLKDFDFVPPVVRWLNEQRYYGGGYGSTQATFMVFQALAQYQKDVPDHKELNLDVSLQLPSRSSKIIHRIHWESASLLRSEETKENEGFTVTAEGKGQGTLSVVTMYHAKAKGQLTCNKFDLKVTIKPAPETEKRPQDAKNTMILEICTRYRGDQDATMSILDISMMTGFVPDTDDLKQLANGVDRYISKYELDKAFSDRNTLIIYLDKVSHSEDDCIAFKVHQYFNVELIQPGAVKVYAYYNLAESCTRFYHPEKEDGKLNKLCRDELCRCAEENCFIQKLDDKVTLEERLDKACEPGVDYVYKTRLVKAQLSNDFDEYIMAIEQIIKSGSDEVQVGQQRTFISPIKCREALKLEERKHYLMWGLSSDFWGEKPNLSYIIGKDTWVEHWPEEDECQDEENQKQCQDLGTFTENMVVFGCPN
- TEST: cell-based or functional assay
VALUE_KIND: Hemolytic Assay IC50, Cyno CP

Example cases with answers are listed next.
BINDER: antibody 3G8 (antibody, V domains shown, Mouse hybridoma antibody) VH: EIQLQQSGAELVKPGASVKISCMASGYSFTGYNMNWVKQSHGKGLEWIGNINPYYDSTSYNQKFKGKATLTVDKSSSTAYMQLNSLTSEDSAVYYCARENYDFVGFAYWGQGTLVTVSA VL: QIVLSQSPAILSASPGEKVTMTCRASSSVSYMHWFQQKPGSSPKPWIYVTSNLASGVPPRFSGSGSGTSYSLTISRVEAEDAATYYCQQWSTNPLTFGAGTKLELK
Hemolytic Assay IC50, Cyno CP: 102 nM
//
BINDER: antibody 28C3 (antibody, V domains shown, Mouse hybridoma antibody) VH: QVQLQQSGPELVKPGASVKISCKASGYAFNSCWMNWVKQRPGKGLEWIGRIYPGDGDTNYNGKFKGKATLTADKSSTTAYMQLSSLTSEDSAVYFCAREGRNYGYEDYWGQGTTLTVSS VL: DIVLTQSPASLAVSLGQRATISCKASQSVDYDGDSYMNWYQQKPGQPPKLLIYAASDLESGIPARFSGSGSGTDFTLNIHPVEEEDAATYYCQQANEDPRTFGGGTKLEIK
Hemolytic Assay IC50, Cyno CP: 3.4 nM

Item: antibody 63A3 (antibody, V domains shown, Mouse hybridoma antibody) VH: DVQLQESGPGLVKPSQSLSLTCSVTGYSITSGYYWNWIRQFPGNKLEWMGYIRYDGSNNYNPSLKNRISITRDTSKNQVFLKLNSVTPEDTATYYCARHYGYDGGAFDFWGQGTTLTVSS VL: DIQMTQSPASLSASVGETVTITCRTSENIYNYLVWYQQKQGKSPQLLVYNAKTLEEGVPSRFSGSGSGTQFSLKVNSLQPEDFGSYYCQHHYGTPFTFGSGTKLEIK | Hemolytic Assay IC50, Cyno CP: 1.6 nM

Taken from patent US20190322730A1.
